target: c-kit (Homo sapiens); construct: human Mo7e cells which endogenously express c-kit; endogenous in cells; host or cells: human Mo7e cells (promegakaryocytic leukemia line), stimulated with human recombinant SCF; test: Mo7e cell proliferation assay (SCF dependent proliferation); type: cell-based; conditions: Table 1; Mo7e cells stimulated with human recombinant SCF, 48 hours; 20% FBS (values marked *)
Sequence (P10721 26-976): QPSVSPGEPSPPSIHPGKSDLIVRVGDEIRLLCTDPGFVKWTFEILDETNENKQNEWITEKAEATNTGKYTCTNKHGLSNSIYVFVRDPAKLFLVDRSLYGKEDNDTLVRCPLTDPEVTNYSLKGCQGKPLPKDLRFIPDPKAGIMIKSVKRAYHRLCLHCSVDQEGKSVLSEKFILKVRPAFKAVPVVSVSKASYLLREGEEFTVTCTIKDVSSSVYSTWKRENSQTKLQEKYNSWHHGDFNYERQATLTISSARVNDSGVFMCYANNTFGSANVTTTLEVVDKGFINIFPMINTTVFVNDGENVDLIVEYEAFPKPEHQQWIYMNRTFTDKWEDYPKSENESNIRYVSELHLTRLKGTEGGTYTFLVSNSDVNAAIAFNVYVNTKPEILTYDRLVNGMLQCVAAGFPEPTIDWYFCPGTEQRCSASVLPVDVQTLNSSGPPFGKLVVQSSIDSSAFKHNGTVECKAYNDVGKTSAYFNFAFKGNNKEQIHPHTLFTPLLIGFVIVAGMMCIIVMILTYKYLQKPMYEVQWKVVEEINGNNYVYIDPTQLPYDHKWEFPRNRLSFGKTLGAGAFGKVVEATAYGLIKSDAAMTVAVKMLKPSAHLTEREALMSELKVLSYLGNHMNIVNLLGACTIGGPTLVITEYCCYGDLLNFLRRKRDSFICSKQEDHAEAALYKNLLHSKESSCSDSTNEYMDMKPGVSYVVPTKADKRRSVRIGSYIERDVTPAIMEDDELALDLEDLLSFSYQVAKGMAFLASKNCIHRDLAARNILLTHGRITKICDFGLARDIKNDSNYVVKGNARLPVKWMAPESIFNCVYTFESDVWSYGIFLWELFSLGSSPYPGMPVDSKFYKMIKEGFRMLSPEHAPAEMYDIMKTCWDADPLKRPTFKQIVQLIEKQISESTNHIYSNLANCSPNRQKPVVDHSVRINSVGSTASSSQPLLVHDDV
MEASUREMENT_TYPE: IC50 (µM)

INSERT INTO results (record_smiles, quantitative_result) VALUES
  ('Cc1ccc(-c2nc(-c3ccc4c(c3)CCO4)no2)cc1NC(=O)c1cnc2ccccn12', 0.073);

[I] Cc1ccc(-c2nc(Cc3ccccc3)no2)cc1NC(=O)c1cnc2ccccn12
[II] Cc1ccc(-c2nc(-c3cnccc3C(F)(F)F)no2)cc1NC(=O)c1cnc2ccccn12
Parameter check: reported IC50 is higher for which label, I or II ? // return label of chosen record
I

Values from patent US20150051206A1
